# credit: the RNAGym collection of RNA variant scans (doi:10.1073/pnas.2313332121)

B1: TPR t1 (parent)
chain: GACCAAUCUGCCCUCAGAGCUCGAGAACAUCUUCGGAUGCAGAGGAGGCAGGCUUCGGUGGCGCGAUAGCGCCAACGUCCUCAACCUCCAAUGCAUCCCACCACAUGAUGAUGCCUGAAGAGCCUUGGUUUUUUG

variants of: B1; test: polymerase ribozyme fitness, log enrichment relative to wild type (log ratio); higher = more active; in vitro selection for triplet polymerase activity
The threshold is inclusive: polymerase ribozyme fitness (log ratio) of exactly -4 counts as yes; values below receive no.

Past entries and their recorded results:
variant.identifier: G60U U116C
label.class: yes
--
variant.identifier: A27G U32G C62U U78G G120C
label.class: no
--
variant.identifier: G71A C99G A100C C123A
label.class: no
--
variant.identifier: G63C C85G
label.class: yes
--
variant.identifier: G61C U92C
label.class: yes

Kindly determine if polymerase ribozyme fitness (log ratio) recorded for C8U C11U C70U C73U C102A is above or exactly -4.
yes
